Test system: MDR1
Assay: In vitro brain model test: MDR1-MDCKII bidirectional permeability
Assay type: in vitro ADME
Details: dog, MDCK-MDR1, pH 7.4, 2 μM, 2.5 h, pH7.4
Procedure: The test product was diluted from dimethyl sulfoxide stock solution to a concentration of 2 μM (dimethyl sulfoxide <1%) with a transfer buffer (HBSS containing 10 mM Hepes, pH7.4); and was applied to apical or basolateral cavities of the cell monolayer. Penetration of the test compound from the direction A to the direction B or from the direction B to the direction A was determined in duplicate. […] Further, the efflux rate of each compound was also determined. […]

| compound | Papp B→A at 2.5 h, 2 μM (×10⁻⁶ cm/s) |
| --- | --- |
| Cc1nsc(-c2nc(-c3ccnc(F)c3)c3n2CCN(C(=O)c2ccc(F)cc2)[C@@H]3C)n1 | 15.9 |
| Cc1nsc(-c2nc(N3Cc4ccccc4C3=O)c3n2CCN(C(=O)c2ccc(F)cc2)[C@@H]3C)n1 | 18.7 |
| Cc1nsc(-c2nc(-c3ccnc(F)c3F)c3n2CCN(C(=O)c2ccc(F)cc2)[C@@H]3C)n1 | 16.1 |
| Cc1nsc(-c2nc(-c3cc(F)ncc3F)c3n2CCN(C(=O)c2ccc(F)cc2)[C@@H]3C)n1 | 14 |
| Cc1nsc(-c2nnc3n2CCN(C(=O)c2ccc(F)cc2)[C@@H]3C)n1 [Fezolinetant, reference compound] | 28.4 |
| Cc1nsc(-c2nc(-c3cc(F)ncc3O)c3n2CCN(C(=O)c2ccc(F)cc2)[C@@H]3C)n1 | 12.2 |
